Tested on: Fibroblast
Assay: Multiplex assay against human fibroblast
Assay type: toxicity, cell-based
Settings: 24 h, 1 µM, compound concentration 1 uM, replicate 2
Label true (1) when Population Tubulin-Different-Phenotype (%) is strictly below 50%; otherwise label false (0).

{"Record Smiles": "Cc1cc(O)c(-c2ccc([C@@H](C)CN(C)C)cc2)c2c1[nH]c(=O)c1sccc12", "Label Class": "false (0)"}

Problem: Threshold test, Population Tubulin-Different-Phenotype (%) < 50%: O=c1ccc2ccc(OCCCCN3CCN(c4cccc5sccc45)CC3)cc2[nH]1
Solution: false (0)

Problem: Threshold test, Population Tubulin-Different-Phenotype (%) < 50%: Cn1cc(C(=O)OCC2CCN(CCNS(C)(=O)=O)CC2)c2ccccc21
Solution: true (1)

Problem: Threshold test, Population Tubulin-Different-Phenotype (%) < 50%: CSc1nc(NC2CCCC2)c([N+](=O)[O-])c(NC2CCCC2)n1
Solution: false (0)

====

System: Fibroblast
Experiment: Multiplex assay against human fibroblast
Type: toxicity, cell-based
Settings: 12 h, 10 µM, compound concentration 10 uM, replicate 1
Parameter Measured: Population Apoptotic (%)
Give the value in % but do not write % after it.

These recorded examples may help you get a feel for the data.
{"Compound": "CC(C)(O)C(=O)N1CCN(c2ccc(C(F)(F)F)c(C3=C(c4c[nH]c5ccccc45)C(=O)NC3=O)c2)CC1", "Assay Value": 33}
{"Compound": "CSc1nc(NC2CCCC2)c([N+](=O)[O-])c(NC2CCCC2)n1 [GS-39783]", "Assay Value": 54}

Problem: Query: Population Apoptotic (%); subject: COc1cc(C(=O)N2CC[C@@H](O)[C@@H](N)C2)cc2nc(-c3cc4ccccc4n3CC3CC3)n(C)c12.Cl
Solution: 60

Problem: Query: Population Apoptotic (%); subject: COCCCN1CCC(NC(=O)c2cc(Cl)c(N)c3c2OCC3)CC1 [PRUCALOPRIDE]
Solution: 30

Problem: Query: Population Apoptotic (%); subject: CN(C)C/C=C/C(=O)Nc1ccc(C(=O)N2CCCC(Nc3ncc(Cl)c(-c4c[nH]c5ccccc45)n3)C2)cc1 (stereo not drawn)
Solution: 59

====

Test system: Fibroblast
Experiment: Multiplex assay against human fibroblast
Assay type: toxicity, cell-based
Details: 24 h, 10 µM, compound concentration 10 uM, replicate 1
Parameter Measured: Population Normal (%)
# answer = value followed by unit

{"Molecule": "COc1cc(OC2CCN(C(C)=O)CC2)ccc1C(=O)N1CCC(N2C(=O)OCc3ccccc32)CC1", "Population Normal (%)": "92%"}

Problem: Query: Population Normal (%); subject: Cc1sc2c(c1C)C(c1ccc(Cl)cc1)=N[C@H](CC(=O)OC(C)(C)C)c1nnc(C)n1-2
Solution: 91%

Problem: Query: Population Normal (%); subject: Nc1nc(-c2ccco2)c2cnn(Cc3ccccc3F)c2n1
Solution: 93%

Problem: Query: Population Normal (%); subject: Cc1ccc(OCC(O)C(C)NC(C)C)c2c1CCC2.Cl (stereo not drawn)
Solution: 98%

Problem: Query: Population Normal (%); subject: Cn1cc(C(=O)OCC2CCN(CCNS(C)(=O)=O)CC2)c2ccccc21
Solution: 94%

Problem: Query: Population Normal (%); subject: COc1cc(C(=O)N2CC[C@@H](O)[C@@H](N)C2)cc2nc(-c3cc4ccccc4n3CC3CC3)n(C)c12.Cl
Solution: 92%

Problem: Query: Population Normal (%); subject: CN1C[C@H](C(=O)N[C@]2(C)O[C@@]3(O)[C@@H]4CCCN4C(=O)[C@H](Cc4ccccc4)N3C2=O)C[C@@H]2c3cccc4[nH]cc(c34)C[C@H]21.CS(=O)(=O)O [DIHYDROERGOTAMINE MESYLATE]
Solution: 98%

Problem: Query: Population Normal (%); subject: CN1CCN(c2ccc(Nc3c4ccccc4nc4ccccc34)cc2)CC1.Cl.Cl.O
Solution: 83%

Problem: Query: Population Normal (%); subject: CCc1nn2c(C)cc(C)nc2c1Cc1ccc(-c2nnc(C3CCNCC3)o2)cc1
Solution: 90%

Problem: Query: Population Normal (%); subject: CN1CCN2c3ccccc3Cc3ccccc3C2C1.Cl (stereo not drawn) [MIANSERIN HYDROCHLORIDE]
Solution: 95%

====

Tested on: U2OS
Assay: Multiplex assay against U2OS
Format: toxicity, cell-based
Conditions: human, 24 h, 1 µM, compound concentration 1 uM, replicate 1
Entries and their Total Cell Count
Enter the number alone.

These recorded examples may help you get a feel for the data.
{"Compound": "OCCCNc1cc(-c2ccnc(Nc3cccc(Cl)c3)n2)ccn1", "Tested On": "U2OS", "Assay Value": 200}
{"Compound": "CCCCCCNC(=O)Nc1ccc(S(=O)(=O)Nc2ccc(CCNC[C@H](O)COc3ccc(O)cc3)cc2)cc1", "Tested On": "U2OS", "Assay Value": 285}
{"Compound": "Cc1c(Cc2ccc3ccccc3n2)c2cc(F)ccc2n1CC(=O)O", "Tested On": "U2OS", "Assay Value": 371}
{"Compound": "CN1C[C@H](C(=O)N[C@]2(C)O[C@@]3(O)[C@@H]4CCCN4C(=O)[C@H](Cc4ccccc4)N3C2=O)C[C@@H]2c3cccc4[nH]cc(c34)C[C@H]21.CS(=O)(=O)O [DIHYDROERGOTAMINE MESYLATE]", "Tested On": "U2OS", "Assay Value": 307}
{"Compound": "O=c1ccc2ccc(OCCCCN3CCN(c4cccc5sccc45)CC3)cc2[nH]1", "Tested On": "U2OS", "Assay Value": 181}
{"Compound": "CCn1c(-c2nc3cc(C(=O)N4CCCC(N)C4)ccc3n2C)cc2ccccc21.Cl (configuration not stated)", "Tested On": "U2OS", "Assay Value": 249}
{"Compound": "CSc1nc(NC2CCCC2)c([N+](=O)[O-])c(NC2CCCC2)n1", "Tested On": "U2OS", "Assay Value": 269}
{"Compound": "N[C@](CC1c2ccccc2Oc2ccccc21)(C(=O)O)[C@H]1C[C@@H]1C(=O)O", "Tested On": "U2OS", "Assay Value": 272}

Problem: // lookup Total Cell Count | system=U2OS | key= C=CCN1C[C@H](C(=O)N(CCCN(C)C)C(=O)NCC)C[C@@H]2c3cccc4[nH]cc(c34)C[C@H]21
Solution: 295

Problem: // lookup Total Cell Count | system=U2OS | key= CC(C)(C)c1ccc(CSc2cnn(C(C)(C)C)c(=O)c2Cl)cc1
Solution: 286

Problem: // lookup Total Cell Count | system=U2OS | key= Cc1nn(C)c2nc(NNC(=O)Nc3cc(Cl)nc(Cl)c3)cc(C(C)C)c12
Solution: 328

====

System: U2OS
Test: Multiplex assay against U2OS
Format: toxicity, cell-based
Settings: human, 48 h, 1 µM, compound concentration 1 uM, replicate 1
Non-standard residues stand in square brackets, D forms with d. Residues, ends and D or L forms follow the SMILES beside them.
Entries and their Population Mitochondria Different-Phenotype (%)
Give the value in % but do not write % after it.

These recorded examples may help you get a feel for the data.
{"Compound": "COCCCN1CCC(NC(=O)c2cc(Cl)c(N)c3c2OCC3)CC1 [PRUCALOPRIDE]", "Tested On": "U2OS", "Assay Value": 1}
{"Compound": "CC(C)C[C@@H]1NC(=O)[C@@H](C(C)C)NC(=O)[C@@H]2CCCN2C(=O)[C@@H](CC(=O)O)NC(=O)[C@@H](Cc2c[nH]c3ccccc23)NC1=O [BQ-123] (cyclo(L[dW][dD]P[dV]))", "Tested On": "U2OS", "Assay Value": 1}
{"Compound": "CCc1nn2c(C)cc(C)nc2c1Cc1ccc(-c2nnc(C3CCNCC3)o2)cc1", "Tested On": "U2OS", "Assay Value": 2}
{"Compound": "CN(C)C/C=C/C(=O)Nc1ccc(C(=O)N2CCCC(Nc3ncc(Cl)c(-c4c[nH]c5ccccc45)n3)C2)cc1 (stereo not drawn)", "Tested On": "U2OS", "Assay Value": 3}
{"Compound": "S=C(NCCCc1c[nH]cn1)NCCCN(Cc1ccc(Cl)c(Cl)c1)c1ccc(Br)cn1", "Tested On": "U2OS", "Assay Value": 3}

Problem: // lookup Population Mitochondria Different-Phenotype (%) | system=U2OS | key= Nc1nc(CC(=O)Nc2ccc(CCNC[C@H](O)c3ccccc3)cc2)cs1 [MIRABEGRON]
Solution: 3

Problem: // lookup Population Mitochondria Different-Phenotype (%) | system=U2OS | key= N[C@](CC1c2ccccc2Oc2ccccc21)(C(=O)O)[C@H]1C[C@@H]1C(=O)O
Solution: 1

Problem: // lookup Population Mitochondria Different-Phenotype (%) | system=U2OS | key= COc1cc(Nc2ncc3c(n2)-c2ccc(Cl)cc2C(c2c(F)cccc2OC)=NC3)ccc1C(=O)O [ALISERTIB]
Solution: 5

Where do these numbers come from? They come from ChEMBL document CHEMBL5058577.
